# Tested On: human NEP (Homo sapiens)
# Construct: purchased R&D Systems, Minneapolis, MN 1182-ZN
# Sequence (P08473 52-750 limits assumed): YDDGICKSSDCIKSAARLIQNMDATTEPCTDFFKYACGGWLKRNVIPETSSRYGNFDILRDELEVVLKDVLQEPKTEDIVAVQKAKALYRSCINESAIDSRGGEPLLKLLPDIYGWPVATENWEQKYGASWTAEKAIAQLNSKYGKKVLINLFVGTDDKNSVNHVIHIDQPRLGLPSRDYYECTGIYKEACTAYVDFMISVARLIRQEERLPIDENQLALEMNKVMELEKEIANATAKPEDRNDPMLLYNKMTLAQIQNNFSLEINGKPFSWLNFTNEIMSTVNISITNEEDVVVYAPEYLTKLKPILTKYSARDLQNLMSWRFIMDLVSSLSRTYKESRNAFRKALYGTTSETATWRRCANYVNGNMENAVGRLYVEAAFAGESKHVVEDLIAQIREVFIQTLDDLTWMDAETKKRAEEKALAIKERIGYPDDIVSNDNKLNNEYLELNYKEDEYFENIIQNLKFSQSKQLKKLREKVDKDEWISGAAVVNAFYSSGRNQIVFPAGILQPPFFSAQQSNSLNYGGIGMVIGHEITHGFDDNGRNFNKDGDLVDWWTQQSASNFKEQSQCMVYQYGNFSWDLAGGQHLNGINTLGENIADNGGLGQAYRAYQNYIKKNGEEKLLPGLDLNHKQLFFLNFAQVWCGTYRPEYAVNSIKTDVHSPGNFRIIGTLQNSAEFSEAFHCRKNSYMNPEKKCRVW
# Assay Info: In vitro enzyme inhibition assay at human NEP (fluorogenic peptide substrate)
# Format: biochemical
# Condition Notes: recombinant human NEP; 10 μM fluorogenic substrate Mca-D-Arg-Arg-Leu-Dap-(Dnp)-OH; 37° C.; 30 minute preincubation; read-out: pKi value at human NEP (converted)
# Lookup of reported Ki keyed by entry
Readout Type: Ki

> print(dat)
                                    compound     meas.value
 1  CCOc1cc(C(=O)N[C@H](Cc2ccc(-c3cccc(Cl)c3)cc2)C[C@@](C)(CO)C(=O)O)n[nH]1         ≤ 1 nM
 2  CCCc1cc(C(=O)N[C@H](Cc2ccc(-c3cc(Cl)ccc3F)cc2)C[C@@](C)(CO)C(=O)O)on1         ≤ 1 nM
 3  C[C@@](COCCCO)(C[C@@H](Cc1ccc(-c2cccc(Cl)c2)cc1)NC(=O)c1c[nH]nn1)C(=O)O         ≤ 1 nM
 4  C[C@@](CO)(C[C@@H](Cc1ccc(-c2cc(Cl)ccc2F)cc1)NC(=O)c1coc(=O)[nH]1)C(=O)O         ≤ 1 nM
 5  COc1cc(C(=O)N[C@H](Cc2ccc(-c3cc(Cl)ccc3F)cc2)C[C@@](C)(CO)C(=O)O)n[nH]1         ≤ 1 nM
 6  COC[C@](C)(C[C@@H](Cc1ccc(-c2cccc(Cl)c2)cc1)NC(=O)c1cc(OC)no1)C(=O)O   10 to 100 nM
 7  COC[C@](C)(C[C@@H](Cc1ccc(-c2cc(Cl)ccc2F)cc1)NC(=O)c1cc(O)no1)C(=O)O   1 to 3.16 nM
 8  COC[C@](C)(C[C@@H](Cc1ccc(-c2cccc(Cl)c2)cc1)NC(=O)c1c[nH]nn1)C(=O)O   1 to 3.16 nM
 9  CCOn1cc(C(=O)N[C@H](Cc2ccc(-c3cc(Cl)ccc3F)cc2)C[C@@](C)(CO)C(=O)O)nn1         ≤ 1 nM
10  CC(C)c1cc(C(=O)N[C@H](Cc2ccc(-c3cc(Cl)ccc3F)cc2)C[C@@](C)(CO)C(=O)O)[nH]n1         ≤ 1 nM
11  CC(C)CC(=O)OC[C@](C)(C[C@@H](Cc1ccc(-c2ccccc2)cc1)NC(=O)c1cnn[nH]1)C(=O)O         ≤ 1 nM
12  C[C@@](CO)(C[C@@H](Cc1ccc(-c2cc(Cl)ccc2F)cc1)NC(=O)c1c[nH]c(=O)o1)C(=O)O         ≤ 1 nM
13  C[C@@](COCCO)(C[C@@H](Cc1ccc(-c2cccc(Cl)c2)cc1)NC(=O)c1cc(O)no1)C(=O)O         ≤ 1 nM
14  CCOc1cc(C(=O)N[C@H](Cc2ccc(-c3cc(Cl)ccc3F)cc2)C[C@@](C)(CO)C(=O)O)n[nH]1         ≤ 1 nM
15  CCc1cc(C(=O)N[C@H](Cc2ccc(-c3cc(Cl)ccc3F)cc2)C[C@@](C)(CO)C(=O)O)on1         ≤ 1 nM
16  C[C@@](CO)(C[C@@H](Cc1ccc(-c2ccccc2Cl)cc1)NC(=O)c1c[nH]nn1)C(=O)O         ≤ 1 nM
17  CCOC[C@](C)(C[C@@H](Cc1ccc(-c2ccccc2)cc1)NC(=O)c1c[nH]nn1)C(=O)O   1 to 3.16 nM
18  COn1cc(C(=O)N[C@H](Cc2ccc(-c3cc(Cl)ccc3F)cc2)C[C@@](C)(CO)C(=O)O)nn1         ≤ 1 nM
19  COC[C@](C)(C[C@@H](Cc1ccc(-c2cc(Cl)ccc2F)cc1)NC(=O)c1c[nH]nn1)C(=O)O         ≤ 1 nM
20  CC(C)OC[C@](C)(C[C@@H](Cc1ccc(-c2cc(Cl)ccc2F)cc1)NC(=O)c1cnn[nH]1)C(=O)O         ≤ 1 nM
21  C[C@@](COCCCO)(C[C@@H](Cc1ccc(-c2cc(Cl)ccc2F)cc1)NC(=O)c1cnn[nH]1)C(=O)O         ≤ 1 nM
22  C[C@@](CO)(C[C@@H](Cc1ccc(-c2cccc(C#N)c2)cc1)NC(=O)c1c[nH]nn1)C(=O)O  3.16 to 10 nM
23  CCOC[C@](C)(C[C@@H](Cc1ccc(-c2cc(Cl)ccc2F)cc1)NC(=O)c1c[nH]nn1)C(=O)O         ≤ 1 nM
24  CC(C)Cc1cc(C(=O)N[C@H](Cc2ccc(-c3cc(Cl)ccc3F)cc2)C[C@@](C)(CO)C(=O)O)on1         ≤ 1 nM
25  CC(=O)c1cc(C(=O)N[C@H](Cc2ccc(-c3cc(Cl)ccc3F)cc2)C[C@@](C)(CO)C(=O)O)[nH]n1         ≤ 1 nM
26  C[C@@](COCCO)(C[C@@H](Cc1ccc(-c2cc(Cl)ccc2F)cc1)NC(=O)c1cnn[nH]1)C(=O)O  3.16 to 10 nM
27  C[C@@](CO)(C[C@@H](Cc1ccc(-c2ccccc2)cc1)NC(=O)c1cnn[nH]1)C(=O)O [reference compound]         ≤ 1 nM
28  CC(C)Cc1cc(C(=O)N[C@H](Cc2ccc(-c3cc(Cl)ccc3F)cc2)C[C@@](C)(CO)C(=O)O)[nH]n1         ≤ 1 nM
